# protocol.notes: yeast display, Sf9 membrane polyspecificity reagent, FACS + sequencing; frameworks hold sequencing errors
outcome.measure: polyreactivity (PSR sort gate)

- sequence.input: "QVQLVESGGGLVQAGGSLRLSCAASGSTFQSYAMGWYRQAPGKERELVAAISARGGTTYYADSVKGRFTISRDNAKNTVYLQMNSLKPEDTAVYYCAVDRAFRAQNYHEYDYWGQGTQVTVSS"
  measured.value: "low polyreactivity"
- sequence.input: "QVQLVESGGGLVQAGGSLRLSCAASGFIFVRYGMGWYRQAPGKERELVAAITWNGGSTFYADSVKGRFTISRDNAKNTVYLQMNSLKPEDTAVYYCAAGYKYSYRSIYTHVDYWGQGTQVTVSS"
  measured.value: "low polyreactivity"
- sequence.input: "QFQLVESGGGLVQAGGSLRLSCAASGRTFGFNAMGWYIQAPGKERELVAAISGSGGRTYYADSVKGRFTISRDKPKNTVYLQMNSLKPEDTAVYYCAAGARRGGSGYLGQGTQVTVSS"
  measured.value: "high polyreactivity"
- sequence.input: "QVQLVESGGGLVQAGGSLRLSCAASGTTNDYYDMGWYRQAPGKERELDAAISSGGDSTYYADSVMGRFTISRDNAKNTVYLQMNSLKPEDTAVYYCAAAVYYGQSVWYYYWGQGTEVTVSS"
  measured.value: "high polyreactivity"

====

# protocol.notes: yeast display, Sf9 membrane polyspecificity reagent, FACS + sequencing; frameworks hold sequencing errors

- sequence.input: "QVQLVESGGGLVQAGGSLRLSCAASGFTFEIYTMGWYRQAPGKERELVAAISTGGNTKYADSVKGRFTISRDNAKNTVYLQMNSLKPEDTAVYYCAKGRKPGYYYWGQGTQVTVSS"
  polyreactivity (PSR sort gate): "high polyreactivity"
- sequence.input: "QVQLVESGGGLVQAGGSLRLSCAASGFILYYYAMGWYRQAPGKERELVASISRRGGSTYYADSVKGRFTISRDNAKNTVYLQMNSLKPEDTAVYYCAATETTSRRFGYDYWGQGTQVTVSS"
  polyreactivity (PSR sort gate): "high polyreactivity"
- sequence.input: "QVHLVESGGGLVQAGGSLRLSCHASGIIFKTYAMGWYRQPPGKERELVAAISSGGTTYYADSVKGRFTISRDNAKNTVYLQMNSLKPEDTAVYYCAARGYRSGGGYNYWGQGTQVTVSS"
  polyreactivity (PSR sort gate): "high polyreactivity"

====

# protocol.notes: yeast display, Sf9 membrane polyspecificity reagent, FACS + sequencing; frameworks hold sequencing errors
outcome.measure: polyreactivity (PSR sort gate)

# annotated cases, reported polyreactivity (PSR sort gate) shown
- sequence.input: "QVQLVESGGGLVQAGGSLRLSCAASGNTFRRNVMGWYRQAPGKERELVAAINRGGSTTYADSVKGRFTISRDNAKNTVYLQMNSLKAEDTAVYYCNARTLFKWRHGHYYAYDYWGQGTQVTVSS"
  polyreactivity (PSR sort gate): "high polyreactivity"
- sequence.input: "QVQLVESGGGLVQAGGSLRLSCAASGSIFPDYAMGWYRQAPGKERELVAAITWRDDSTYYADSVKGRFTISRDNAKNTVYLQMNSLKPEDTAVYYCNASALDPLYAKDDYWGQGTQVTVSS"
  polyreactivity (PSR sort gate): "low polyreactivity"
- sequence.input: "QVQHVESGGVLVQAGGSLRLSCAASGSIFVIYAMGWYRQAPGQEWELVAAINRGSTNYADSVKGRFTISRDNAKNTVYLQMNSLKPEDTAVYYCAAYGRYGFGRVERYDYWGLGTQVTVSS"
  polyreactivity (PSR sort gate): "high polyreactivity"
- sequence.input: "QVQLVESGGALVQAGGSLRLSCAASGRTFYPNAMGGYRQAPGKERELVAGSSYGTGSTYYADSVKGRFTISRDNAKNTVYLQMNSLKAEDNAVYYCAADNWAVNAYYWYIYDYWGQGTQVTVSS"
  polyreactivity (PSR sort gate): "low polyreactivity"

// switching to the query sequence
QUERY: Given the sequence QVQLVESGGGLDQAGGSLRLSCAASGRIFNKYAMGWYRQAPGKERELVAAISSGASTYYADSVKGRFTISRDNAKNTVYLQMNSLKPEDTAVYYCAAGGSKGGNYWGQGTQVTVSS , what is its reported polyreactivity (PSR sort gate)?
RESULT: high polyreactivity

====

# protocol.notes: yeast display, Sf9 membrane polyspecificity reagent, FACS + sequencing; frameworks hold sequencing errors

- sequence.input: "QVQLVESGGGLVQAGGSLRLSCAASGITFEGYAMGWYRQAPGKEREFVAAITGSGSTTYYADSVKGRFTITRDNAKNTVYLQMNSLKPEDTAVYYCVAYVGSTYSAPEYYWGQGTQVTVSS"
  polyreactivity (PSR sort gate): "low polyreactivity"
- sequence.input: "QVQLVESGGGLVQAGGSLRLSCAASGSIFGFYAMGWYRQAPGKERELVASISSSGDSTYYADSVKGRFTISRDNAKNTVYLQMNSLNPEDTAVYYCAAVVYDIYGYEFDYWGQGTQVTVSS"
  polyreactivity (PSR sort gate): "low polyreactivity"

====

# protocol.notes: yeast display, Sf9 membrane polyspecificity reagent, FACS + sequencing; frameworks hold sequencing errors
outcome.measure: polyreactivity (PSR sort gate)

Observe how each entry below is paired with its result.
- sequence.input: "QVQHVESGGGLVQAGGSLRLSCAASGSIFRIYAMGWYRQAPGKERELVAAISVSTGSRTYYADSVKGRFTISRDNAKNTVYLQMNSLKPEDTAVYYCNAESYYDYNYWGQGTQVTVSS"
  measured.value: "low polyreactivity"
- sequence.input: "QVQLVESGGGLVQAGGSLRISFAASGSTFDIYVMGWYRQAPGKERELVAAISRVGNTSYADSVKGRFTISRDNAKNTVYLQMNSLKPEDKAVYYCAADAPSWYDRQYDYWGKGTQVTVSS"
  measured.value: "low polyreactivity"
- sequence.input: "QVQLVESGGGLVQAGGSLRLSCAASGIIFYLNAMGWYRLAPGKERELVAAISSSDGTTYYADSVKGRFTISRDNAKNTVYLQMNSLKPEDTAGYYCAAGQDWGYLDYDWVSYLYDYWGQGTQVTVSS"
  measured.value: "low polyreactivity"
- sequence.input: "QVQLVESGGGSVQAGGSLRLSCAASGSTFWSYAMGWYRQAPGKERELVAVITGSDGRTFYADSVKGRFTISRDNANNTFFLQMNSLKPEDTAVYYCAADALFRATRFDRSTSEDDYWGQGTQVTVSS"
  measured.value: "low polyreactivity"
- sequence.input: "QVQLVESGGGLVQAGGSLRLSCAASGSIFGWYAMGWYRQAPGKVRELVATITDRGGRTYYADSVKGRFTISRDNAKNTVYLQMNSLTPEDTAVYDCAADAWPFEAESDSWGQGTQVTVSS"
  measured.value: "low polyreactivity"

QUERY: Value lookup for polyreactivity (PSR sort gate); key = QVQLVESGGGLVQAGGSLRLSCAASGGIFDFYAMGWYRPAPGKERELVAAITRSGSSTFYADSVKGRFTLSRDNAKNTVDLQMNSLKPEDTAIYYCAADYSHLPIAWYYYWGQGTQVTVSS
RESULT: low polyreactivity

QUERY: Return reported polyreactivity (PSR sort gate); argument: QVQLVESGGRLVQAGGSLRLSCAASGFSFGGNVIGWYRQAPGKDREFVAAITDGDGSTYYADSVKGRFTISRDNAKNTVYLQMNSLKPEDTSVYYCAGDVYYADVYPVEYWGQGTQVTVSS
RESULT: high polyreactivity

QUERY: Entry under review: QVQLGESGGGLVQAGGSLRLSCAASGNIFRYYAMGWYRQAPGKERELVAAITWSGGSTYYADSVKGRFTISRDNAKNTVYLQMNSLKQEDTAVYYCNTYRVPYRTVQDDYWGQGTQVTLSS . Reported polyreactivity (PSR sort gate)?
RESULT: high polyreactivity

QUERY: I have this sequence here, QVQLVESGGGLVQAGGSLRLSCAASGRTFSGYAMGWYRQAPGKERELVAGINWSGDSTYYADSVKGRFTISRDNAKNTVYLQMNSLKPEDTAVYYCAASRSGTYDWGQGTQVTVSS , and I need its recorded polyreactivity (PSR sort gate).
RESULT: high polyreactivity

QUERY: Form field: reported polyreactivity (PSR sort gate) of QVQLVESGGGLVQAGGSLRLSCAASGIIFYVNAMGWYRQAPGKERELVAVISRRGGSTNYADSVKGRFTISRDNAKNTVYLQMNSLKPEDTAVYYCAAGYRTAYRGSSYYYWGQGTQVTVSS
RESULT: high polyreactivity

QUERY: Give its polyreactivity (PSR sort gate) value. Item: QVQRVESGVRLVQAGGSLRLSCASSGSIFRYYTMGWYRQAPGKERELVAAISRSGGSTYYADSVKGRFTISRDNAKNTVYLQMNSLKPVDTGVYYCAARYKRAQGYREGDYWGQGTQVTVSS
RESULT: high polyreactivity

QUERY: I'd like to know its polyreactivity (PSR sort gate). The sequence in question is QEQLVESAGGLVQAGGSLRLSCAASGSTFYRYAMGWNRQAPGKERELVAAITSSGGSTYYADSVKGRFTISRDNAKNTVYLQMNRLKPEDTAVYYWNAVRRRQSDYWGQGTQVTVSS
RESULT: high polyreactivity

QUERY: // returns reported polyreactivity (PSR sort gate) for input QVQLVESGGGLVQAGGSLRLSCAASGRTFQWNGMGWYRQAPGKERELVDTIRRGGSTNYADSVKGRFTISRDNAKNTVDLQMNSLKPEDTAVYYCAADRRYPGGWGFEYNYWGQGTQVTVSS
RESULT: low polyreactivity
